TARGET: LCK-SH3-SH2 (aa 58 to 230) (human, UniProt P06239 58-230)
Sequence (P06239 58-230): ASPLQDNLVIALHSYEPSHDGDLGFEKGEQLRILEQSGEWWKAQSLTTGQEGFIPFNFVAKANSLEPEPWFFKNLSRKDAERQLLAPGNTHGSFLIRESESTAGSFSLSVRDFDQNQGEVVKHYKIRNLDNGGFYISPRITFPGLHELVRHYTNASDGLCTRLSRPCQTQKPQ
ASSAY_EXPLANATION: SPR
Non-standard residues stand in square brackets, D forms with d. No end group written: not given here. *: point of attachment. Biotin = O=C1N[C@H]2[C@H](CS[C@H]2CCCCC(=O)*)N1; pY = N[C@@H](Cc1ccc(OP(=O)(O)O)cc1)C(=O)O
# Kd annotations
RESULT_TYPE: Kd

BINDER: Biotin-EFLTI[pY]EDVKD [CD244 ITSM 1 peptide, biotinylated, phosphorylated]
RESULT_TYPE: Kd
ASSAY_VALUE: ~2 µM

BINDER: Biotin-QKGPPLPRPRVQPKPPHG [CD2-322 peptide, biotinylated]
RESULT_TYPE: Kd
ASSAY_VALUE: > 1000 µM

BINDER: Biotin-HPPPPPGHRSQAPSHRPPPPGHRVQ [CD2-281-305 peptide, biotinylated]
RESULT_TYPE: Kd
ASSAY_VALUE: > 1000 µM
